Tested on: K.B. carcinoma (KB)
experimental-details: proliferation inhibiting effect in explantation (KB)
Type: cell-based
applied-conditions: 72 h, 3 days culture with compound, living cells by dye-exclusion (tripan blue)
// reported IC50 per item
parameter: IC50 (µg/mL)

structure_smiles=C[Si](C)(C)CCSCCNC(=O)c1cccnc1 parameter=IC50 unit_symbol=µg/mL endpoint_value=10
structure_smiles=C[Si](C)(C)CCSCCNC(=O)c1ccccc1 parameter=IC50 unit_symbol=µg/mL endpoint_value=17
structure_smiles=C[Si](C)(C)CCSCCNC(=O)c1cccc2ccccc12 parameter=IC50 unit_symbol=µg/mL endpoint_value=14
structure_smiles=C[Si](C)(C)CCSCCNC(=O)c1ccco1 parameter=IC50 unit_symbol=µg/mL endpoint_value=17
structure_smiles=Cc1ccc(S(=O)(=O)NCCSCC[Si](C)(C)C)cc1 parameter=IC50 unit_symbol=µg/mL endpoint_value=10
